Biological target: recombinant human ULK1 protein (1-649) (Homo sapiens)
Construct: recombinant human ULK1 protein (1-649, SignalChem #U01-11G); purchased SignalChem U01-11G
Assay: ULK1 inhibition assay (ADP Glo)
Format: biochemical
Settings: Table 1; 25 uM ATP, MBP substrate, one hour
pIC50: −log10 of the molar value.
Reported pIC50 values for the following compounds.

Known results for compounds:
CNC(=O)c1ccccc1Nc1nc(Nc2ccc3c(c2)CN(C)CC3)ncc1Br [Compound A167]    < 8.00
O=C(NCCO)c1cnc(Nc2ccc3c(c2)CCNC3)nc1NC1CC1 [Compound A36]    < 8.00
CNC(=O)c1ccccc1Nc1nc(Nc2ccc3c(c2)CN(Cc2ccc(OC)cc2)CC3)ncc1Br [Compound A158]    < 8.00

Moving on to the next compound.
Req: Item: CS(=O)(=O)N1CCc2ccc(Nc3ncc(C(F)(F)F)c(NC4CC4)n3)cc2C1 [Compound A104] Test system: recombinant human ULK1 protein (1-649) (Homo sapiens) Read-out: pIC50 Value: ?
Resp: 8.00 to 9.00

* * *

Molecular target: recombinant human ULK1 protein (1-649) (Homo sapiens, UniProt O75385)
Construct: recombinant human ULK1 protein (1-649, SignalChem #U01-11G); purchased SignalChem U01-11G
Sequence (O75385 1-649): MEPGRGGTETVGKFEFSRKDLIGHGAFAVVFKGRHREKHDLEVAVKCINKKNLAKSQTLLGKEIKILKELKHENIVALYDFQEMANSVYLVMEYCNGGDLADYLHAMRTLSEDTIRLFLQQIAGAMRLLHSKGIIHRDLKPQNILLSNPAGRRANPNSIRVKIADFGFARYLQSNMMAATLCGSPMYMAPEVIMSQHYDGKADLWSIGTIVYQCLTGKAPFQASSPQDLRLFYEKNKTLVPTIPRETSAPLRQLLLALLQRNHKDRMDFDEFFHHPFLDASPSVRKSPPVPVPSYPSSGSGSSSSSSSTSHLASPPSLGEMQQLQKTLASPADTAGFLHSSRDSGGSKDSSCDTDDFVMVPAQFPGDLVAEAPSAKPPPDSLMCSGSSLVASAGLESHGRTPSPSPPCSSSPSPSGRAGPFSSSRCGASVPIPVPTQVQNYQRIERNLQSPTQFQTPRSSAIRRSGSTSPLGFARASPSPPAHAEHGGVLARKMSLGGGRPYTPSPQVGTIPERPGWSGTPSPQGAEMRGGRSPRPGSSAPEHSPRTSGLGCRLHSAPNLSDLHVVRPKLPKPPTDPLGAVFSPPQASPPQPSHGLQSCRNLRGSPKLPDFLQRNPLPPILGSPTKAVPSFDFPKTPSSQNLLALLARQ
Assay: ULK1 inhibition assay (ADP Glo)
Format: biochemical
Settings: Table 3
Measure: IC50

These recorded examples may help you get a feel for the data.
COc1cc(Nc2ncc(Br)c(Nc3ccccc3COC(=O)N3CCOCC3)n2)cc(OC)c1OC    > 0.1 µM
CNC(=O)c1ccccc1Nc1nc(Nc2ccc(N3CCNCC3)cc2)ncc1Br    0.005 to 0.1 µM
COc1cc(Nc2ncc(Br)c(Nc3ccccc3COC(C)=O)n2)cc(OC)c1OC    0.005 to 0.1 µM
COc1cc(Nc2ncc(Br)c(Nc3ccc(NC(=O)C4(C(=O)Nc5ccc(F)cc5)CC4)cc3F)n2)cc(OC)c1OC    > 0.1 µM
COc1ccc(Nc2ncc(Br)c(Nc3ccccc3CO)n2)cc1    0.005 to 0.1 µM

Req: Field request: IC50 | item: CNC(=O)c1ccc(Nc2nc(Nc3cc(OC)c(OC)c(OC)c3)ncc2Br)cc1
Resp: > 0.1 µM
